B1: OR4K15 (parent)
chain: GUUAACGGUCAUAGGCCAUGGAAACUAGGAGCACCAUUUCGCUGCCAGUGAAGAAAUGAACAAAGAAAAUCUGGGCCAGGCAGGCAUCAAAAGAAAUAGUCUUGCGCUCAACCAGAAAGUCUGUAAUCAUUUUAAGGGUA

Variants of: B1
protocol: self-cleavage, relative activity (ratio to wild type); higher = more cleavage; in vitro, sequencing; the parent is a self-cleaving ribozyme
The entries below are paired with their reported self-cleavage.

>  <variant-designation>
U87G U122C

>  <self-cleavage>
0.68

$$$$
>  <variant-designation>
A4G G65C

>  <self-cleavage>
1.18

$$$$
>  <variant-designation>
G83A U87C

>  <self-cleavage>
1.21

$$$$
>  <variant-designation>
A60G C113U

>  <self-cleavage>
0.09

$$$$
>  <variant-designation>
A111G U120C

>  <self-cleavage>
0.01

$$$$
>  <variant-designation>
A117G U131C

>  <self-cleavage>
1.15

$$$$
>  <variant-designation>
A13G A126G

>  <self-cleavage>
1.04

$$$$
>  <variant-designation>
A52U A95G

>  <self-cleavage>
1.48

$$$$
>  <variant-designation>
A24U A118G

>  <self-cleavage>
0.99

$$$$
